Give growth inhibition for every item shown.
experiment: NCI Yeast Anticancer Drug Screen. Data for the bub3 strain (AID 167); conditions: S. cerevisiae bub3 mutant strain, at 50.0 µM, active compounds read high
This is part of a sample that, as a whole, favours compounds with a hit. Of some 79,000 tested, about 15% had one in any assay.
Answers are plain numbers, in %.

Below: 5 compounds and their reported growth inhibition.
                                   compound  test_result
0  COc1ccc(-c2csc(NC(=O)Nc3nc(-c4ccc(OC)cc4)cs3)n2)cc1          7.7
1  OCC(O)COc1ccc(Cl)cc1Cl (stereo unspecified)         10.1
2       O=C(O)CSCC(=O)Nc1cc(C(F)(F)F)ccc1Cl        -11.3
3               O=C(O)CCCCCNC(=O)OCc1ccccc1         3.25
4  C=COC(=O)CCOCC(CC)CCCC (stereo unspecified)        -4.55

As a next step, examine the compound that follows.
Exercise: Write down growth inhibition measured for item `Cc1ccc(N2C(=O)c3cccc4c(N)c(S(=O)(=O)O)cc(c34)C2=O)cc1`
Key: -13.7

----------
test: NCI Yeast Anticancer Drug Screen. Data for the rad50 strain (AID 155);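 further: 0% = growth of vehicle-only cultures of the same strain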; details: S. cerevisiae rad50 strain growth inhibition; at 50.0 µM; active compounds read high
The panel holds about 79,000 compounds, 15% with a hit somewhere; the sample as a whole holds those more often.
Kindly supply the reported growth inhibition values for the records listed here.
One number for each entry, in %.

Examples with answers:
                                smiles_code  test_result
0  COc1ccc2c(Cl)cc(NC(=O)Nc3c(C)cccc3C)nc2c1          5.8
1                 O=C(c1ccc(Cl)cc1)N1CCCCC1         1.05
2                O=S1(=O)c2ccccc2Oc2ccccc21        -26.2
3  Cc1ccc(S(=O)(=O)NC(=O)NCCSSCCNC(=O)NS(=O)(=O)c2ccc(C)cc2)cc1         10.6

Items follow; give growth inhibition for each.
1. Cc1cc(Nc2ccc3c(c2)OCO3)c2cc3c(cc2n1)OCO3
2. CC(=O)C[n+]1ccc(C)cc1Sc1ccccc1C

Key:
1. 10.6
2. 8.4

----------
assay: NCI Yeast Anticancer Drug Screen. Data for the rad50 strain (AID 155);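 further: 0% = growth of vehicle-only cultures of the same strain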; settings: S. cerevisiae rad50 strain growth inhibition; at 50.0 µM; active compounds read high
About 79,000 compounds went through this panel and 15% of them were active in at least one assay; those are over-represented in the sample as a whole.
For each of the molecules below, state its growth inhibition.
Give bare numbers, in %.

In [3]: df
Out[3]:
              molecule    recorded_metric  units_symbol  test_result
0  COc1ccc(Br)c(C=O)c1  growth inhibition             %        -10.1

Batch: growth inhibition for all items listed.
1. C=CCS(C)(=O)=O
2. C=CC(=O)OC1CCC(C(C)(C)CC)CC1 (centres undefined)

Key:
1: -13.8; 2: 39.9

Give me growth inhibition for each of these molecules, listed below.
1. NNc1ncccn1
2. O=C(c1ccccc1)c1ccc(-c2ccc(O)cc2)cc1
3. Oc1cccc(CNC2CCCCC2)c1
4. O=S(=O)(OCCOS(=O)(=O)c1ccccc1)c1ccccc1
5. COc1ccc(C(=O)C(=O)c2ccccc2)cc1
6. C[n+]1c(/C=C\C=C\N2CCCCC2)sc2ccccc21
7. O=C1C=CC(=O)C2=C1CCCC2
8. CC1(C)OC(=O)CC1=O

Key:
[6.45, 37.7, 3.5, 31.9, 26.6, 28.7, 17.1, 4.6]

Field: growth inhibition. Fill in for each record below.
1. Cc1ccc(C)c(CN(C)C)c1O
2. Clc1ncnc2nc[nH]c12
3. CC(C)(C)[Si](C)(C)OCC1OC(n2cnc3c(N)ncnc32)CC1OS(C)(=O)=O (centres undefined)
4. Nc1cc2c(cc1Cl)C(=O)c1ccccc1C2=O
5. CC(=O)c1cccc(N(C)S(=O)(=O)c2ccc(C)cc2)c1
6. Cc1ccc2nc(N)nnc2c1

Key:
[-0.8, -1.9, -17, 32.4, 47.6, -5.9]

Below are 3 molecules. Give each one its growth inhibition.
1. CC(=O)Nc1ncc(S(=O)(=O)c2ccc([N+](=O)[O-])cc2)s1
2. Cc1[nH]nc(C(N)=O)c1[N+](=O)[O-]
3. CCCC1OC(c2ccco2)OCC1CC (centres undefined)

Key:
1. -28.1
2. -0.75
3. 30.8

----------
assay: NCI Yeast Anticancer Drug Screen. Data for the mec2-1 strain (AID 157); settings: S. cerevisiae mec2-1 strain, at 50.0 µM, active compounds read high
This is part of a sample that, as a whole, favours compounds with a hit. Of some 79,000 tested, about 15% had one in any assay.
recorded.metric: growth inhibition (%)
Numbers only, in %.

>>> df
                                   compound  units_symbol  test_result
0             Nc1ccc2c(c1)Cc1cc(N)c(N)cc1-2             %        -7.75
1                CCC(=O)C1C(=O)c2ccccc2C1=O             %        -12.6
2  CCOC(=O)c1ccc(Nc2sc(C(=O)c3ccc(Br)cc3)c(N)c2C#N)cc1             %        -23.6

For the 6 compounds below, give their growth inhibition values.
1. NNC(=O)c1ccccc1N
2. CN(C)c1ccc(/C=C/C(=O)c2ccc(NC(N)=O)cc2)cc1
3. COc1ccc(Br)c(C=O)c1
4. O=C(O)Cc1ccc(Cl)cc1
5. OCC1CCC(O)C(CO)N1 (stereo unspecified)
6. Nc1ncnc2c1ncn2C1OC(CO)C2OC21 (stereo unspecified)

Key:
4.35
1.9
-8.9
-15.3
-29.6
-7.85

For every record below, what is its growth inhibition?
1. COc1nc2ccccc2s1
2. CC(=O)Nc1ccc(O)c(C)c1
3. c1ccc2[nH]c(Cc3nc4ccccc4[nH]3)nc2c1
4. CCCCCCCCCCCCCCCCCC(=O)NCCNC(=O)CCCCCCCCCCCCCCCCC

Key:
1: -15.2; 2: 3.35; 3: -14.4; 4: -27.6

For each of the items listed, what is its growth inhibition?
1. O=C(CCl)Oc1ccc([N+](=O)[O-])cc1
2. NNc1ncnc2nc[nH]c12
3. Cc1cc(C(=O)c2ccccc2)cc(C)c1O
4. NCC(O)C(O)C(O)C(O)CO (stereo unspecified)
5. Nc1c(Br)cc(O)c2c1C(=O)c1ccccc1C2=O
6. CCOc1ccc2c(c1)c(C)cc(C)[n+]2CC

Key:
1. 21.9
2. -9.65
3. -3.35
4. 6.8
5. -3.5
6. -41

Please give growth inhibition, item by item, for the list that follows.
1. CC(=O)Nc1ccc(/C=C2\SC(=S)N(/C=C(\C(C)=O)C(N)=O)C2=O)cc1
2. COc1cccc2c1Cc1ccccc1-2
3. CCc1ccccc1C(=O)N(CC)CC
4. O=C(Nc1c(Cl)cc(Cl)cc1Cl)ON=C1CCCCC1

Key:
1: -7.4; 2: -3.6; 3: 18.4; 4: -19

Please go through the list and note growth inhibition for each compound.
1. CC1(C)CC(=O)C=C(N)C1
2. O=C(CCl)Nc1ccccc1SCc1cc(Cl)cc2c1OCOC2
3. CC(=O)OC/C(C)=C\CC(C)COC(C)=O (stereo unspecified)
4. N#C/C(=C\NC(=S)N=Nc1c(O)[nH]c2ccccc12)c1nc2ccccc2s1
5. CCCCCCCCCCCCSC1=C(Cl)C(=O)C(OC)=C(OC)C1=O
6. COc1ccc(Br)c2c1C(=O)CC2
7. CC(=O)OC(C)c1cccc(C#N)c1 (stereo unspecified)

Key:
1: -16.5; 2: -16.4; 3: 3.35; 4: 2.3; 5: -18.1; 6: 23.4; 7: -25.4

Quick request: growth inhibition for each listed item, please.
1. C=CC(C)C(C)(C)O (stereo unspecified)
2. CCN1CCCC(N2c3ccccc3Sc3ccccc32)C1 (stereo unspecified)
3. O=C(O)c1c[nH]c2ccccc2c1=O

Key:
1. -43.5
2. -15.2
3. -8.15

Each compound below has a reported value. Please supply its growth inhibition.
1. Clc1ccc(/C=C/c2ccccn2)cc1
2. CN(C)c1ccc2nc3ccc(=[N+](C)C)cc-3oc2c1
3. CCN(Cc1ccc(Cl)c(Cl)c1)c1ccc2nc(N)nc(N)c2c1C
4. Cc1cccc(C)c1NC(=S)/N=C\c1c(O)[nH]c(=O)[nH]c1=O
5. O=c1n(CC2CO2)c(=O)n(CC2CO2)n1CC1CO1 (stereo unspecified)
6. O=C(c1ccccc1O)N1CCCC1
7. CN1CCN(C(=S)S)CC1
8. CC(CCC#N)(CCC#N)C(=O)c1ccccc1

Key:
1. 2.05
2. -12.4
3. 84.6
4. -27.2
5. -5.75
6. 7.15
7. -2.5
8. 25.7

Return reported growth inhibition values for all items listed beneath this line.
1. Cc1ccnc(Nc2nc3ccccc3[nH]2)n1
2. Cc1cc(NC(=O)c2ccccc2)c(Cl)cc1N
3. CC(=O)Nc1ccc(C(=O)c2ccc(S(=O)(=O)Nc3ccccc3)cc2)cc1
4. C=CCC(O)C=C (stereo unspecified)

Key:
-10.9
-33.9
-9.15
-14.9

Where do the numbers come from? From PubChem BioAssay (NCI).
